Target: UniProt Q9NYK1
Sequence (Q9NYK1 27-1049): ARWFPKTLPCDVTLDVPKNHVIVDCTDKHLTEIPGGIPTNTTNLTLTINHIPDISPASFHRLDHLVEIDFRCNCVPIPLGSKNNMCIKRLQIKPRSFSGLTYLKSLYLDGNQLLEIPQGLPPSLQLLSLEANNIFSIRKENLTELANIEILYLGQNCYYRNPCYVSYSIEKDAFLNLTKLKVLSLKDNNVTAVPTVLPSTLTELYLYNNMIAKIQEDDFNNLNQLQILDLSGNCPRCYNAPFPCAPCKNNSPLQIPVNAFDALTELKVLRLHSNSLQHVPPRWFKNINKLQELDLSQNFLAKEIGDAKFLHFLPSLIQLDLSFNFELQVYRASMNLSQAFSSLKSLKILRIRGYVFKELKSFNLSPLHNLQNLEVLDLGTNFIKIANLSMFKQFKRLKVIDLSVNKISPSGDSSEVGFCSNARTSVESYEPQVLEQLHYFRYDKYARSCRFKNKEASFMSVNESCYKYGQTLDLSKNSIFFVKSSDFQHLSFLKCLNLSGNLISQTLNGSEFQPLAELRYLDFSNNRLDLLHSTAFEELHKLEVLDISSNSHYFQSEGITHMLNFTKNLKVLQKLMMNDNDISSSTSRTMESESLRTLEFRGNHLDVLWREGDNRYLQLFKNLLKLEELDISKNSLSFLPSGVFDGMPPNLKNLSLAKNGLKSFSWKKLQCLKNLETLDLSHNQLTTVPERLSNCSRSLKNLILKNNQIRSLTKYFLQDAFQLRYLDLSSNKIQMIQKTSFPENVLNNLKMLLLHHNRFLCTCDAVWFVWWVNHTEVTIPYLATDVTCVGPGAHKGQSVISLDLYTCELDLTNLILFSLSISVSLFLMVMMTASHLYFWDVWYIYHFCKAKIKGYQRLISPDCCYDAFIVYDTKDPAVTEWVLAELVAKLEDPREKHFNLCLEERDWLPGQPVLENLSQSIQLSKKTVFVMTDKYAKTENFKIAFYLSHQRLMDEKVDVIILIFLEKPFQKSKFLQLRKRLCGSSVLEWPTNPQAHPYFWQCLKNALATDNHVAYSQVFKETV
Assay: TLR7 inhibition reporter assay (HEK-Blue SEAP reporter, gardiquimod stimulation)
Assay type: cell-based
Conditions: HEK-Blue cells overexpressing human TLR7, gardiquimod 7.5 μM
Counter-ions that a name gives are not always drawn.
Entries whose IC50 is below 200 nM take met; entries at or above 200 nM take not met.

{"columns": ["molecule", "label_class"],
 "data": [
  ["Cc1cc(-c2[nH]c3ccc(C(C)(C)C(=O)N4CCC(CN)CC4)cc3c2C(C)C)ccn1", "met"],
  ["Cc1cc(-c2[nH]c3ccc(C(C)C(=O)N4CCC[C@H](N)C4)cc3c2C(C)C)ccn1 (stereo partly shown)", "met"],
  ["CCc1c(-c2ccc(OC)c(OC)c2)[nH]c2ccc(C(=O)N3CCN(CCc4ccccc4)CC3)cc12", "not met"],
  ["Cc1cc(-c2[nH]c3ccc(C(=O)N4CC5CN(C(C)C)CC5C4)cc3c2C(C)C)ccn1 (stereo not shown)", "met"],
  ["CCc1c(-c2ccnc3[nH]ccc23)[nH]c2ccc(C(=O)N(CC)CCN(C)C)cc12", "met"],
  ["CCc1c(-c2ccc(OC)c(OC)c2)[nH]c2ccc(C(=O)N3CCCC(C(=O)N(CC)CC)C3)cc12 (stereo not shown)", "not met"],
  ["COc1ccc(-c2[nH]c3ccc(C(=O)N4CC5CNCC5C4)cc3c2C(C)C)cc1OC (stereo not shown)", "met"],
  ["COc1ccc(-c2[nH]c3ccc(C(=O)N4CC5CNCC5C4)cc3c2CC(F)(F)F)cc1OC (stereo not shown) [Example 88, hydrochloride]", "not met"],
  ["Cc1cc(-c2[nH]c3ccc(C(C)(C)C(=O)NC4CCC5CNCC54)cc3c2C(C)C)ccn1 (stereo not shown) [Example 144]", "met"],
  ["Cc1cc(-c2[nH]c3ccc(C(C)C(=O)NC[C@@H]4CCNC4)cc3c2C(C)C)ccn1 (stereo partly shown)", "not met"],
  ["Cc1cc(-c2[nH]c3ccc(C(C)C(=O)NCC(C)(C)O)cc3c2C(C)C)ccn1 (stereo not shown)", "not met"],
  ["Cc1cc(-c2[nH]c3ccc(C(C)C(=O)NC4CN5CCC4CC5)cc3c2C(C)C)ccn1 (stereo not shown) [Example 191]", "met"],
  ["Cc1cc(-c2[nH]c3ccc(C(C)(C)C(=O)NC4C[C@H]5CC[C@@H](C4)N5C)cc3c2C(C)C)ccn1 (stereo partly shown)", "met"],
  ["CCc1c(-c2ccc(OC)c(OC)c2)[nH]c2ccc(C(=O)NCCC(N)=O)cc12", "not met"],
  ["CCc1c(-c2ccc(OC)c(OC)c2)[nH]c2ccc(C(=O)NCc3csc(-c4ccccc4)n3)cc12", "not met"],
  ["CCc1c(-c2ccc(OC)c(OC)c2)[nH]c2ccc(C(=O)N3CCNC(=O)C3)cc12", "not met"],
  ["Cc1cc(-c2[nH]c3ccc(C(C)(C)C(=O)N4CCNCC4)cc3c2C(C)C)ccn1", "met"],
  ["CCc1c(-c2ccc(OC)c(OC)c2)[nH]c2ccc(C(=O)NCc3ccc(N)cc3)cc12", "not met"],
  ["CCc1c(-c2ccc(OC)c(OC)c2)[nH]c2ccc(C(=O)N3CCCC(C)(C)C3)cc12", "not met"],
  ["COc1ccc(-c2[nH]c3ccc(C(=O)N4CC5CN(C(C)C)CC5C4)cc3c2C(C)C)cc1OC (stereo not shown)", "met"],
  ["CC(C)c1c(-c2ccnc3[nH]ncc23)[nH]c2ccc(CCC(=O)N3CCOCC3)cc12", "not met"],
  ["CCc1c(-c2ccc(OC)c(OC)c2)[nH]c2ccc(C(=O)N3CCC(N(C)C)CC3)cc12", "not met"],
  ["Cc1cc(-c2[nH]c3ccc(C(C)(C)C(=O)N(C)C4CCNCC4)cc3c2C(C)C)ccn1", "met"],
  ["Cc1cc(-c2[nH]c3ccc(C(C)(C)C(=O)NCC4CCCCN4)cc3c2C(C)C)ccn1 (stereo not shown)", "met"],
  ["Cc1cc(-c2[nH]c3ccc(C(C)(C)C(=O)NC4CCC(N)CC4)cc3c2C(C)C)ccn1 (stereo not shown)", "met"],
  ["CNC(=O)c1ccc2[nH]c(-c3cc(C)nc(C)c3)c(C(C)C)c2c1", "met"],
  ["CCc1c(-c2ccc(OC)c(OC)c2)[nH]c2ccc(C(=O)N3CCN(CC)CC3)cc12", "not met"],
  ["Cc1cc(-c2[nH]c3ccc(C(C)(C)C(=O)NCC4(O)CCN(C)CC4)cc3c2C(C)C)ccn1", "met"],
  ["COc1ccc(-c2[nH]c3ccc(C(=O)N4CC5CN(CC(=O)N(C)C)CC5C4)cc3c2CC(F)(F)F)cc1OC (stereo not shown)", "not met"]
]}
